target: ASK1 (Apoptosis Signal-Regulating Kinase 1) (Homo sapiens (Human), UniProt Q99683); test: ASK1 (Apoptosis Signal-Regulating Kinase 1) TR-FRET Kinase Assay (Biochemical IC50); settings: TR-FRET, biotin-MBP substrate, 20 min pre-incubation, ATP added as 300 μM solution
Sequence (Q99683 649-946): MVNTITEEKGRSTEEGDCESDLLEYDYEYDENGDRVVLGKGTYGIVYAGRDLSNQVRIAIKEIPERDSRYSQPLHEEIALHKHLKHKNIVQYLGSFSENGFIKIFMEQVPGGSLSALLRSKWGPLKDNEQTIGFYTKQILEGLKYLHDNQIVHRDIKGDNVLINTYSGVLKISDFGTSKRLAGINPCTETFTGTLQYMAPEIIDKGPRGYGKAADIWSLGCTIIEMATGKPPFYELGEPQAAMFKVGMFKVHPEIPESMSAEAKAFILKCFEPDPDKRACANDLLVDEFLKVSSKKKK
PARAMETER: log10 IC50 (log10 of the value in µM)

• O=C(Nc1cccc(-c2nncn2C2CC2)c1)c1cc(-c2ccc(C3CC3)nc2)ncn1 = -1.85
• CCC(C)n1cnnc1-c1cccc(NC(=O)c2cc(-c3ccc(C4CC4)nc3)ccn2)c1 (stereo not drawn) = -1.00
• CC(C)n1cnnc1-c1cccc(NC(=O)c2cc(-n3cnc(C4CC4)c3)ccn2)c1 = -1.70
• O=C(Nc1cccc(-c2nncn2C2CC2)c1)c1cc(-c2ccc(C3CC3)nc2)ccn1 = -2.10
• O=C(Nc1cccc(-c2nncn2C2CC2)n1)c1ccnc(-c2ccc(C3CC3)nc2)c1 = -1.52
• COc1ncc(-c2ccnc(C(=O)Nc3cccc(-c4nncn4C4CC4)c3)c2)c(OC)n1 = -2.10
• O=C(Nc1cccc(-c2nncn2C2CC2)c1)c1cc(-c2nc(C3CC3)no2)ccn1 = 0.10
• O=C(Nc1cccc(-c2cncn2C2CC2)c1)c1cc(-c2ccc(C3CC3)nc2)ccn1 = -1.51
• CCc1ncc(-c2ccnc(C(=O)Nc3cccc(-c4nncn4C4CC4)c3)c2)cc1F = -2.10
• O=C(Nc1cccc(-c2nncn2C2CC2)c1)c1cc(-c2ccc(NC3CC3)nc2)ccn1 = -2.22
• O=C(Nc1cccc(-c2nncn2C2CC2)c1)c1cc(-c2ccc(N3CCNC3=O)cc2)ccn1 = -1.82
• O=C(Nc1cccc(-c2nncn2C2CC2)c1)c1cc(-n2cnc3ccccc32)ccn1 = -2.10
• Cn1c(-c2ccnc(C(=O)Nc3cccc(-c4nncn4C4CC4)c3)c2)cnc1-c1ccccc1 = -1.64
• C[C@H](n1cnnc1-c1cccc(NC(=O)c2cc(-c3ccc(C4CC4)nc3)ccn2)n1)C(F)(F)F = -1.72
• CNS(=O)(=O)c1ccc(-c2ccnc(C(=O)Nc3cccc(-c4nncn4C4CC4)n3)c2)cc1 = -2.05
• CC(C)n1cnnc1-c1cccc(NC(=O)c2cc(-c3ccc(C4CC4)nc3)ccn2)c1 = -1.80
• O=C(Nc1cccc(-c2nncn2C2CC2)n1)c1cccc(-c2ccc(C3CC3)nc2)c1 = -2.10
• CC(C)n1cnnc1-c1cccc(NC(=O)c2cc(-c3ccc(C4CC4)nc3)ccn2)n1 = -1.89
• O=C(Nc1cccc(-c2nncn2C2CC2)n1)c1cncc(-c2ccc(C3CC3)nc2)c1 = -2.10
• CC(O)c1nnc(-c2ccnc(C(=O)Nc3cccc(-c4nncn4C4CC4)c3)c2)o1 (stereo not drawn) = 0.53
• O=C(Nc1cccc(-c2nncn2C2CC2)c1)c1cc(-c2ccc(N3CCCC3)nc2)ccn1 = -1.49
• O=C(Nc1cccc(-c2nncn2C2CC2)c1)c1cc(-c2cnc3cccnc3c2)ccn1 = -1.89
• O=C(Nc1cccc(-c2nncn2C2CC2)c1)c1cc(-c2cccnc2)cc(C(F)(F)F)n1 = -0.37
• Cc1nccn1-c1ccnc(C(=O)Nc2cccc(-c3nncn3C3CC3)c2)c1 = -1.32

----------
target: ASK1 (Apoptosis Signal-Regulating Kinase 1) (Homo sapiens (Human), UniProt Q99683); experiment: ASK1 (Apoptosis Signal-Regulating Kinase 1) TR-FRET Kinase Assay (Biochemical IC50); settings: TR-FRET, biotin-MBP substrate, 20 min pre-incubation, ATP added as 300 μM solution
PARAMETER: IC50

- CC(C)c1cn(-c2cccc(C(=O)Nc3cccc(-c4nncn4C4CC4)n3)c2)cn1: 5 nM
- Cc1cc(C(=O)Nc2cccc(-c3nncn3C3CC3)n2)cc(-n2cnc(C3CC3)c2)c1: 7 nM
- O=C(Nc1cc(-c2nncn2C2CC2)ccn1)c1cc(-c2cccnc2)ccn1: 18 nM
- Cc1c(C(=O)Nc2cccc(-c3nncn3C3CC3)n2)cccc1-n1cnc(C2CC2)c1: 1260 nM
- O=C(Nc1cccc(-c2nncn2C2CC2)n1)c1cccc(-c2ccc(C3CC3)nc2)n1: 852 nM
- CC(C)S(=O)(=O)c1ccc(-c2ccnc(C(=O)Nc3cccc(-c4nncn4C4CC4)c3)c2)cc1: 9 nM

----------
pIC50 values, listed per item
target: UniProt:Q99683; assay: ASK1 (Apoptosis Signal-Regulating Kinase 1) TR-FRET Kinase Assay (Biochemical IC50); settings: TR-FRET, biotin-MBP substrate, 20 min pre-incubation, ATP added as 300 μM solution
pIC50: −log10 of the molar value.
PARAMETER: pIC50

• Cc1nc(C2CC2)cn1-c1ccnc(C(=O)Nc2cccc(-c3nncn3C3CC3)c2)c1 [Example 182] = 7.82
• Cn1cnnc1-c1cccc(NC(=O)c2cncc(-c3ccccc3)c2)c1 [Example 2] = 5.25
• CC(C)[C@H](C)n1cnnc1-c1cccc(NC(=O)c2cc(-c3ccc(C4CC4)nc3)ccn2)c1 [Example 238] = 8.22

----------
target: ASK1 (Apoptosis Signal-Regulating Kinase 1) (Homo sapiens (Human), UniProt Q99683); assay: ASK1 (Apoptosis Signal-Regulating Kinase 1) TR-FRET Kinase Assay (Biochemical IC50); conditions: TR-FRET, biotin-MBP substrate, 20 min pre-incubation, ATP added as 300 μM solution
PARAMETER: IC50 (nM)

• Cc1ccncc1-c1ccnc(C(=O)Nc2cccc(-c3nncn3C3CC3)c2)c1 = 244
• O=C(Nc1ccnc(-c2nncn2C2CC2)c1)c1cc(-c2cnc3ccccc3c2)ccn1 = 409
• O=C(Nc1cc(F)cc(-c2nncn2C2CC2)c1)c1cc(-c2ccc(C3CC3)nc2)ccn1 = 143
• C[C@@H](CO)n1cnnc1-c1cccc(NC(=O)c2cc(-c3cccnc3)ccn2)c1 = 39
• COc1cncc(-c2ccnc(C(=O)Nc3cccc(-c4nncn4C)c3)c2)c1 = 40
• CS(=O)(=O)c1cccc(-c2ccnc(C(=O)Nc3cccc(-c4nncn4C4CC4)c3)c2)c1 = 79
• COC[C@H](C)n1cnnc1-c1cccc(NC(=O)c2cc(-c3ccc(C4CC4)nc3)ccn2)c1 = 17
• NC(=O)CCn1cnnc1-c1cccc(NC(=O)c2cc(-c3cccnc3)ccn2)c1 = 114
• CCc1ncc(-c2ccnc(C(=O)Nc3cccc(-c4nncn4C4CC4)c3)c2)cn1 = 7
• CCNc1ccc(-c2ccnc(C(=O)Nc3cccc(-c4nncn4C4CC4)c3)c2)cn1 = 9

----------
pIC50 values for the compounds below.
target: ASK1 (Apoptosis Signal-Regulating Kinase 1) (Homo sapiens (Human)); assay: ASK1 (Apoptosis Signal-Regulating Kinase 1) TR-FRET Kinase Assay (Biochemical IC50); settings: TR-FRET, biotin-MBP substrate, 20 min pre-incubation, ATP added as 300 μM solution
pIC50: −log10 of the molar value.
PARAMETER: pIC50

* O=C(Nc1cccc(-c2nncn2CC(F)(F)F)c1)c1cc(-c2cccnc2)ccn1 | 6.54
* CC(C)(C)NC(=O)c1cncc(-c2ccnc(C(=O)Nc3cccc(-c4nncn4C4CC4)c3)c2)c1 | 8.00
* COc1ncccc1-c1ccnc(C(=O)Nc2cccc(-c3nncn3C3CC3)c2)c1 | 7.22
* Cc1cc(-c2ccc(C3CC3)nc2)cc(C(=O)Nc2cccc(-c3nncn3C3CC3)c2)n1 | 7.15
* C[C@@H](O)[C@H](C)n1cnnc1-c1cccc(NC(=O)c2cc(-c3ccc(C4CC4)nc3)ccn2)n1 | 8.00
* C[C@H](n1cnnc1-c1cccc(NC(=O)c2cc(-c3ccc(C4CC4)nc3)ccn2)c1)C(F)(F)F | 7.35
* O=C(Nc1cccc(-c2nncn2C2CC2)n1)c1cccc(-c2cnc3cccnc3c2)c1 | 7.74
* O=C(Nc1cccc(-c2nncn2C2CC2)n1)c1cc(F)cc(-n2cnc(C3CC3)c2)c1 | 8.05
* COc1ccc(-n2cnc(C3CC3)c2)cc1C(=O)Nc1cccc(-c2nncn2C2CC2)c1 | 7.96
* O=C(Nc1cccc(-c2nncn2C2CC2)c1)c1cc(-c2cnc3ccn(CC(F)(F)F)c3c2)ccn1 | 7.60
* O=C(Nc1cccc(-c2nncn2C2CC2)n1)c1cc(-c2ccc(C3CC3)nc2)ccc1F | 7.89
* O=C(Nc1cccc(-c2nncn2C2CC2)c1)c1cc(-c2cncc(F)c2)ccn1 | 7.64
* O=C(Nc1cccc(-c2nncn2C2CC2)n1)c1cc(-n2cnc(C(O)C(F)(F)F)c2)ccn1 (stereo not shown) | 7.96
